Provide the reported Duration of each item.
Test system: oral cavity and pharyngeal surfaces
EXPERIMENT DESCRIPTION: Sensory activity of ODT-A on volunteers
Format: in vivo, human
DETAILS: 6 to 8 trials per compound
Numbers only here, please. The scale is min.

Value lookup for Duration; key = CCCCP(=O)(C(C)CC)C(C)CC (stereo not drawn) [DAPA-2-4, 1-Di(sec-butyl) phosphinoyl-butane]
3

Name the recorded Duration for CCCCCP(=O)(C(C)CC)C(C)CC (stereo not drawn) [DAPA-2-5, 1-Di(sec-butyl)-phosphinoyl-pentane] .
12

# get_value(readout='Duration', item= CCCCCCP(=O)(C(C)CC)C(C)CC (stereo not drawn) [DAPA-2-6, 1-Di(sec-butyl) phosphinoyl-hexane] )
18

* * *

ASSAY TARGET: cloned hTRPM8 channel (encoded by the human TRPM8 gene, expressed in CHO cells) (Homo sapiens, UniProt Q7Z2W7)
Construct: host or cells: CHO cells, stably transfected
Sequence (Q7Z2W7 whole entry): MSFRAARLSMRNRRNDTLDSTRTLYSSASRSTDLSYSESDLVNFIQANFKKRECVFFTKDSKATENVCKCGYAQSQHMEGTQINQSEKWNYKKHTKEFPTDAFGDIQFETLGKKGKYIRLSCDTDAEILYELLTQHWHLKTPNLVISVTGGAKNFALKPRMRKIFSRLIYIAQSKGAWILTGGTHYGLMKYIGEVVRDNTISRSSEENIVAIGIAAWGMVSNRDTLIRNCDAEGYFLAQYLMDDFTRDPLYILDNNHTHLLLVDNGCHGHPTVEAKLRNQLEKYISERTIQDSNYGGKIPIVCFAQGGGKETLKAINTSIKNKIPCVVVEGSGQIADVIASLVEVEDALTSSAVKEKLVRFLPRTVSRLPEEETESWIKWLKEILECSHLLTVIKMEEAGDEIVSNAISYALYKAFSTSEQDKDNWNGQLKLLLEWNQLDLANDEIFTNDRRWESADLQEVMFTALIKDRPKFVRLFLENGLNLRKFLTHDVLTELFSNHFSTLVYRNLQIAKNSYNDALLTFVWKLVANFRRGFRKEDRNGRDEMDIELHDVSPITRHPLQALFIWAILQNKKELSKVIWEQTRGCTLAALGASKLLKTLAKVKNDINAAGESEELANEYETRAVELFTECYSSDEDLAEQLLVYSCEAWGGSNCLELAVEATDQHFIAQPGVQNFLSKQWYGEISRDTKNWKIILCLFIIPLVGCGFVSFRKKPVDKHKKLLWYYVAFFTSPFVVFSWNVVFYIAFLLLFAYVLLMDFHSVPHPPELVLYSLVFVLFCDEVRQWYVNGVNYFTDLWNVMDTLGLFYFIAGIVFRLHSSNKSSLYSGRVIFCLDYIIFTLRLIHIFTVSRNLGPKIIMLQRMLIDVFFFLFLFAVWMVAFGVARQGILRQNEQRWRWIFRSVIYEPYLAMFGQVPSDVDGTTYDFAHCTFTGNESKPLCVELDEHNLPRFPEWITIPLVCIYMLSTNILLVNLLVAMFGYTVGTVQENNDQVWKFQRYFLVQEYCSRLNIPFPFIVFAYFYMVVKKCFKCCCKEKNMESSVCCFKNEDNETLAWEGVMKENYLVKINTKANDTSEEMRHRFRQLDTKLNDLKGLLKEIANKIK
EXPERIMENT DESCRIPTION: TRPM8 agonist FLIPR Fluo-8 calcium assay
Type: cell-based
DETAILS: DAPA-1-7 = 1
Label condition met when TRPM8 Relative Potency < 0.6; otherwise condition not met.

Please indicate whether the reported TRPM8 Relative Potency of CCCCCP(=O)(C(C)CC)C(C)CC (centres unmarked) [DAPA-2-5, 1-Di(sec-butyl)-phosphinoyl-pentane] is strictly below 0.6.
condition met

Lab log: compare recorded TRPM8 Relative Potency with 0.6; is it strictly lower for CCCCCCP(=O)(C(C)CC)C(C)CC (centres unmarked) [DAPA-2-6, 1-Di(sec-butyl) phosphinoyl-hexane] ?
condition not met

TRPM8 Relative Potency strictly < 0.6 for this molecule? CCCCCCCCP(=O)(C(C)CC)C(C)CC (centres unmarked) [DAPA-2-8, 1-Di(sec-butyl) phosphinoyl-octane]
condition not met

Hello, I'm reviewing records and need to know if TRPM8 Relative Potency of CCCCCCCP(=O)(C(C)C)C(C)C is below 0.6. Could you check?
condition not met

Would you kindly verify if TRPM8 Relative Potency of CCCCCCCP(=O)(C(C)CC)C(C)CC (centres unmarked) [DAPA-2-7, 1-Di(sec-butyl) phosphinoyl-heptane] is strictly less than 0.6?
condition not met

* * *

Tested on: throat
EXPERIMENT DESCRIPTION: Cold water test after ODT-A (cold discomfort)
Format: in vivo, human
Set-up: key: If the subject felt “normal coolness” in the throat, the value was “0”; if the water felt “excessively cold” on the throat, it was rated as “+”; if there was “aching cold/discomfort” on the throat, the ranking was “++”
DETAILS: ODT-A on the tongue, ice water drunk 10 min later
READOUT TYPE: Cold Discomfort
Form rule: numeric answer, no unit written next to it.

Cold Discomfort lookup needed for CCC(C)P(=O)(CCC(C)C)C(C)CC (stereo not shown) , thanks.
0

May I ask what Cold Discomfort has been recorded for CCCCCP(=O)(CC(C)C)CC(C)C ?
0

* * *

ASSAY TARGET: cloned hTRPM8 channel (encoded by the human TRPM8 gene, expressed in CHO cells) (Homo sapiens)
Construct: host or cells: CHO cells, stably transfected
EXPERIMENT DESCRIPTION: TRPM8 agonist FLIPR Fluo-8 calcium assay
Type: cell-based
Classification field: enter True for Relative Potency to L-menthol values not below 0.9, False for values below it.

I'd appreciate it if you could say whether CCCCCCP(=O)(C(C)C)C(C)C has Relative Potency to L-menthol at least equal to 0.9.
True

Textbook exercise: given the entry CCCCCP(=O)(C(C)CC)C(C)CC (centres unmarked) [DAPA-2-5, 1-Di(sec-butyl)-phosphinoyl-pentane] , state whether its Relative Potency to L-menthol is greater than or equal to 0.9.
True

In plain terms: is recorded Relative Potency to L-menthol at least 0.9 for CCCCCCCCP(=O)(C(C)CC)C(C)CC (centres unmarked) [DAPA-2-8, 1-Di(sec-butyl) phosphinoyl-octane] ?
True

Kindly determine if Relative Potency to L-menthol recorded for CCCCCP(=O)(C(C)C)C(C)C is above or exactly 0.9.
False

Reported Relative Potency to L-menthol at or above 0.9? CCCCCCCP(=O)(C(C)C)C(C)C
True

Check the entry CCCCP(=O)(C(C)CC)C(C)CC (centres unmarked) [DAPA-2-4, 1-Di(sec-butyl) phosphinoyl-butane] : does Relative Potency to L-menthol equal or exceed 0.9?
False

Does Relative Potency to L-menthol meet or surpass 0.9 for CCCCCCCCP(=O)(C(C)C)C(C)C ?
True

I'd appreciate it if you could say whether CCCCCP(=O)(CC(C)C)CC(C)C has Relative Potency to L-menthol at least equal to 0.9.
False

Hi, just wondering whether CCCCCCCP(=O)(C(C)CC)C(C)CC (centres unmarked) [DAPA-2-7, 1-Di(sec-butyl) phosphinoyl-heptane] shows Relative Potency to L-menthol of 0.9 or higher.
True

Form field: Relative Potency to L-menthol at least 0.9? Entry: CCCCCCP(=O)(C(C)CC)C(C)CC (centres unmarked) [DAPA-2-6, 1-Di(sec-butyl) phosphinoyl-hexane]
True
